assay: Urinary excretion study in rats after oral NS, SF or CNS (LC–MS/MS); format: in vivo; details: rat urine, oral CNS 110 mg/kg, 72 h
Quantity: Excretion amount
Remember to follow the number with its unit.

{"Compound": "CC(C)=CCC[C@](C)(O[C@@H]1O[C@H](CO)[C@@H](O)[C@H](O)[C@H]1O)[C@H]1CC[C@]2(C)[C@@H]1[C@H](O)C[C@@H]1[C@@]3(C)CC[C@H](O[C@@H]4O[C@H](CO)[C@@H](O)[C@H](O)[C@H]4O[C@@H]4O[C@H](CO)[C@@H](O)[C@H](O)[C@H]4O)C(C)(C)[C@@H]3CC[C@]12C [ginsenoside Rd]", "Excretion amount": "0.004 ± 0.004 µg"}
{"Compound": "CC(C)=CCC[C@](C)(O[C@@H]1O[C@H](CO)[C@@H](O)[C@H](O)[C@H]1O)[C@H]1CC[C@]2(C)[C@@H]1[C@H](O)C[C@@H]1[C@@]3(C)CC[C@H](O)C(C)(C)[C@@H]3[C@@H](O[C@@H]3O[C@H](CO)[C@@H](O)[C@H](O)[C@H]3O[C@@H]3O[C@@H](C)[C@H](O)[C@@H](O)[C@H]3O)C[C@]12C [ginsenoside Re]", "Excretion amount": "0.013 ± 0.017 µg"}
{"Compound": "CC(C)=CCC[C@](C)(O[C@@H]1O[C@H](CO[C@@H]2O[C@H](CO)[C@@H](O)[C@H](O)[C@H]2O)[C@@H](O)[C@H](O)[C@H]1O)[C@H]1CC[C@]2(C)[C@@H]1[C@H](O)C[C@@H]1[C@@]3(C)CC[C@H](O[C@@H]4O[C@H](CO)[C@@H](O)[C@H](O)[C@H]4O[C@@H]4O[C@H](CO)[C@@H](O)[C@H](O)[C@H]4O)C(C)(C)[C@@H]3CC[C@]12C [ginsenoside Rb1]", "Excretion amount": "0.070 ± 0.060 µg"}

Now for another entry.
Find the recorded Excretion amount belonging to CC(C)=CCC[C@](C)(O[C@@H]1O[C@H](CO)[C@@H](O)[C@H](O)[C@H]1O)[C@H]1CC[C@]2(C)[C@@H]1[C@H](O)C[C@@H]1[C@@]3(C)CC[C@H](O)C(C)(C)[C@@H]3[C@@H](O[C@@H]3O[C@H](CO)[C@@H](O)[C@H](O)[C@H]3O)C[C@]12C [ginsenoside Rg1] and report it.
0.185 ± 0.312 µg

---

experiment: Urinary excretion study in rats after oral NS, SF or CNS (LC–MS/MS); format: in vivo; conditions: rat urine, oral CNS 110 mg/kg, 120 h
Quantity: Excretion amount (µg)
All answers are understood in µg, so give the number only.

Find the recorded Excretion amount belonging to CC(C)=CCC[C@](C)(O[C@@H]1O[C@H](CO)[C@@H](O)[C@H](O)[C@H]1O)[C@H]1CC[C@]2(C)[C@@H]1[C@H](O)C[C@@H]1[C@@]3(C)CC[C@H](O[C@@H]4O[C@H](CO)[C@@H](O)[C@H](O)[C@H]4O[C@@H]4O[C@H](CO)[C@@H](O)[C@H](O)[C@H]4O)C(C)(C)[C@@H]3CC[C@]12C [ginsenoside Rd] and report it.
0.004

---

assay: Urinary excretion study in rats after oral NS, SF or CNS (LC–MS/MS); assay type: in vivo; settings: rat urine, oral NS 60 mg/kg, 48 h
Quantity: Excretion amount (µg)
All answers are understood in µg, so give the number only.

{"Molecule": "CC(C)=CCC[C@](C)(O[C@@H]1O[C@H](CO[C@@H]2O[C@H](CO)[C@@H](O)[C@H](O)[C@H]2O)[C@@H](O)[C@H](O)[C@H]1O)[C@H]1CC[C@]2(C)[C@@H]1[C@H](O)C[C@@H]1[C@@]3(C)CC[C@H](O[C@@H]4O[C@H](CO)[C@@H](O)[C@H](O)[C@H]4O[C@@H]4O[C@H](CO)[C@@H](O)[C@H](O)[C@H]4O)C(C)(C)[C@@H]3CC[C@]12C [ginsenoside Rb1]", "Excretion amount / µg": 0.201}

Find the recorded Excretion amount belonging to CC(C)=CCC[C@](C)(O[C@@H]1O[C@H](CO)[C@@H](O)[C@H](O)[C@H]1O)[C@H]1CC[C@]2(C)[C@@H]1[C@H](O)C[C@@H]1[C@@]3(C)CC[C@H](O)C(C)(C)[C@@H]3[C@@H](O[C@@H]3O[C@H](CO)[C@@H](O)[C@H](O)[C@H]3O[C@@H]3O[C@@H](C)[C@H](O)[C@@H](O)[C@H]3O)C[C@]12C [ginsenoside Re] and report it.
0.020

Find the recorded Excretion amount belonging to CC(C)=CCC[C@](C)(O[C@@H]1O[C@H](CO)[C@@H](O)[C@H](O)[C@H]1O)[C@H]1CC[C@]2(C)[C@@H]1[C@H](O)C[C@@H]1[C@@]3(C)CC[C@H](O)C(C)(C)[C@@H]3[C@@H](O[C@@H]3O[C@H](CO)[C@@H](O)[C@H](O)[C@H]3O)C[C@]12C [ginsenoside Rg1] and report it.
0.285

---

# Accumulative excretion percentage per record follows
assay: Urinary excretion study in rats after oral NS, SF or CNS (LC–MS/MS); type: in vivo; conditions: rat urine, oral CNS 110 mg/kg, 6 h
All answers are understood in %, so give the number only.

{"Compound": "CC(C)=CCC[C@](C)(O[C@@H]1O[C@H](CO[C@@H]2O[C@H](CO)[C@@H](O)[C@H](O)[C@H]2O)[C@@H](O)[C@H](O)[C@H]1O)[C@H]1CC[C@]2(C)[C@@H]1[C@H](O)C[C@@H]1[C@@]3(C)CC[C@H](O[C@@H]4O[C@H](CO)[C@@H](O)[C@H](O)[C@H]4O[C@@H]4O[C@H](CO)[C@@H](O)[C@H](O)[C@H]4O)C(C)(C)[C@@H]3CC[C@]12C [ginsenoside Rb1]", "Unit": "%", "Accumulative excretion percentage": 0.006}
{"Compound": "CC(C)=CCC[C@](C)(O[C@@H]1O[C@H](CO)[C@@H](O)[C@H](O)[C@H]1O)[C@H]1CC[C@]2(C)[C@@H]1[C@H](O)C[C@@H]1[C@@]3(C)CC[C@H](O)C(C)(C)[C@@H]3[C@@H](O[C@@H]3O[C@H](CO)[C@@H](O)[C@H](O)[C@H]3O)C[C@]12C [ginsenoside Rg1]", "Unit": "%", "Accumulative excretion percentage": 0.132}
{"Compound": "CC(C)=CCC[C@](C)(O[C@@H]1O[C@H](CO)[C@@H](O)[C@H](O)[C@H]1O)[C@H]1CC[C@]2(C)[C@@H]1[C@H](O)C[C@@H]1[C@@]3(C)CC[C@H](O[C@@H]4O[C@H](CO)[C@@H](O)[C@H](O)[C@H]4O[C@@H]4O[C@H](CO)[C@@H](O)[C@H](O)[C@H]4O)C(C)(C)[C@@H]3CC[C@]12C [ginsenoside Rd]", "Unit": "%", "Accumulative excretion percentage": 0.003}

Now for another entry.
Find the recorded Accumulative excretion percentage belonging to CC(C)=CCC[C@](C)(O[C@@H]1O[C@H](CO)[C@@H](O)[C@H](O)[C@H]1O)[C@H]1CC[C@]2(C)[C@@H]1[C@H](O)C[C@@H]1[C@@]3(C)CC[C@H](O)C(C)(C)[C@@H]3[C@@H](O[C@@H]3O[C@H](CO)[C@@H](O)[C@H](O)[C@H]3O[C@@H]3O[C@@H](C)[C@H](O)[C@@H](O)[C@H]3O)C[C@]12C [ginsenoside Re] and report it.
0.049

---

test: Urinary excretion study in rats after oral NS, SF or CNS (LC–MS/MS); assay type: in vivo; conditions: rat urine, oral CNS 110 mg/kg, 2 h
# Accumulative excretion percentage per record follows
All answers are understood in %, so give the number only.

Answered examples (3):
{"Compound": "CC(C)=CCC[C@](C)(O[C@@H]1O[C@H](CO)[C@@H](O)[C@H](O)[C@H]1O)[C@H]1CC[C@]2(C)[C@@H]1[C@H](O)C[C@@H]1[C@@]3(C)CC[C@H](O)C(C)(C)[C@@H]3[C@@H](O[C@@H]3O[C@H](CO)[C@@H](O)[C@H](O)[C@H]3O[C@@H]3O[C@@H](C)[C@H](O)[C@@H](O)[C@H]3O)C[C@]12C [ginsenoside Re]", "Reported result": 0.028}
{"Compound": "CC(C)=CCC[C@](C)(O[C@@H]1O[C@H](CO)[C@@H](O)[C@H](O)[C@H]1O)[C@H]1CC[C@]2(C)[C@@H]1[C@H](O)C[C@@H]1[C@@]3(C)CC[C@H](O)C(C)(C)[C@@H]3[C@@H](O[C@@H]3O[C@H](CO)[C@@H](O)[C@H](O)[C@H]3O)C[C@]12C [ginsenoside Rg1]", "Reported result": 0.066}
{"Compound": "CC(C)=CCC[C@](C)(O[C@@H]1O[C@H](CO)[C@@H](O)[C@H](O)[C@H]1O)[C@H]1CC[C@]2(C)[C@@H]1[C@H](O)C[C@@H]1[C@@]3(C)CC[C@H](O[C@@H]4O[C@H](CO)[C@@H](O)[C@H](O)[C@H]4O[C@@H]4O[C@H](CO)[C@@H](O)[C@H](O)[C@H]4O)C(C)(C)[C@@H]3CC[C@]12C [ginsenoside Rd]", "Reported result": 0.001}

Now for another entry.
Find the recorded Accumulative excretion percentage belonging to CC(C)=CCC[C@](C)(O[C@@H]1O[C@H](CO[C@@H]2O[C@H](CO)[C@@H](O)[C@H](O)[C@H]2O)[C@@H](O)[C@H](O)[C@H]1O)[C@H]1CC[C@]2(C)[C@@H]1[C@H](O)C[C@@H]1[C@@]3(C)CC[C@H](O[C@@H]4O[C@H](CO)[C@@H](O)[C@H](O)[C@H]4O[C@@H]4O[C@H](CO)[C@@H](O)[C@H](O)[C@H]4O)C(C)(C)[C@@H]3CC[C@]12C [ginsenoside Rb1] and report it.
0.002
